- Experimental target: human MASP-2 (human, UniProt O00187 16-686)
- Sequence (O00187 16-686): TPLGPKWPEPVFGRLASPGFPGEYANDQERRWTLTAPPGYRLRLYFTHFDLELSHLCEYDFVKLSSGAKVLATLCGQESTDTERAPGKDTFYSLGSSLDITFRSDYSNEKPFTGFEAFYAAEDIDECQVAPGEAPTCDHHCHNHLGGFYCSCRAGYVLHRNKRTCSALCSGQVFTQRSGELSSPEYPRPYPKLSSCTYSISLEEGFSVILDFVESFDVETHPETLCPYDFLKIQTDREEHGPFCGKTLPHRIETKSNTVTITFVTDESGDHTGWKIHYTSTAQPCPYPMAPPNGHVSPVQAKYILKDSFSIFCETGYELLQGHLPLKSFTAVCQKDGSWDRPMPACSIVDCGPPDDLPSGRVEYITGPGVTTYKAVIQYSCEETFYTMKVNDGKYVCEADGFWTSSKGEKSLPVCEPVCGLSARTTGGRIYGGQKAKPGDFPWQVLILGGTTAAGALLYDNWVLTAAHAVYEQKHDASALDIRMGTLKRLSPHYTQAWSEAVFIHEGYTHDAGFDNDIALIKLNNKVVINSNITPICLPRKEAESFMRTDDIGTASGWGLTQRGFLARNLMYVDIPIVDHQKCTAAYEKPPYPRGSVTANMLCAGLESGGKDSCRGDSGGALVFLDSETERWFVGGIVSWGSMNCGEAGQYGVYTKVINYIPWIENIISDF
- Assay protocol: cell-based or functional assay
Endpoint: Functional IC50, C3b deposition, human serum Exp #2

Look up Functional IC50, C3b deposition, human serum Exp #2 for this binder: scFv mother clone 3F22 (scFv) scFv: QVQLQQSGPGLVKPSQTLSLTCAISGDSVSSNSAAWNWIRQSPSRGLEWLGRTYYRSKWYNDYAVSVKSRITINPDTSKNQFSLQLNSVTPEDTAVYYCARDPFGVPFDIWGQGTMVTVSSKLSGSASAPKLEEGEFSEARVSYVLTQPPSVSVAPGQTARVTCGGNNIRSKNVHWYQQKPGQAPVLVVYDDTDRPSGIPERFSGSNSGNTATLTVSRVEAGDEADYYCQVWDTTTDHVVFGGGTKLTVLAAAGSEQKLISEEDLNSHHHHHH
36.7 nM

Record: scFv mother clone 18L16 (scFv) scFv: QVTLKESGPVLVKPTETLTLTCTVSGFSLSNARMGVSWIRQPPGKALEWLAHIFSNDEKSYSTSLKSRLTISKDTSKSQVVLTMTNMDPVDTATYYCARMAILTAGGMDVWGQGTTVTVSSKLSGSASAPKLEEGEFSEARVSYVLTQPPSVSASPGQTASITCSGDKLGDKYVSWYQQKPGRSPVLVIYRDTKRPSGIPERFSGSNYGNTATLTISGTQAVDEADYYCQAWDSGSGVFGGGTKVTVLAAAGSEQKLISEEDLNSHHHHHH
96.8 nM

Next binder, please.
Which Functional IC50, C3b deposition, human serum Exp #2 value belongs to scFv mother clone 9P13 (scFv) scFv: QVQLQQSGPGLVKPSQTLSLTCAISGDSVSSNSAAWNWIRQSPSRGLEWLGRTYYRSKWYNDYAVSVKSRITINPDTSKNQFSLQLNSVTPEDTAVYYCARDPFGVPFDIWGQGTMVTVSSKLSGSASAPKLEEGEFSEARVSYELTQLPSVSVAPGQTARVTCGGNNIRSKNVHWYQQKPGQAPVLVVYDDTDRPSGIPERFSGSNSGNTATLTVSRVEAGDEADYYCQVWDTTTDHVVFGGGTKVTVLAAAGSEQKLISEEDLNSHHHHHH ?
120 nM
